src = patent US20100113535A1

Listed next: entries and their corresponding IC50.
- Tested on: porcine lens epithelial (PLE) cells
- Test details: Toxicity of PA and its analogs to PLE cell growth (cell counts, 50% inhibitory concentration)
- Type: cell-based
- Condition notes: Sus scrofa, 120 hours (five days) with substance, treated cell count equal to 50% of control, from FIG. 5, read-out: IC50 μg/mL
The reply should be a number in µg/mL, with the unit left off.

Previously resolved entries follow.
[
  {
    "Smiles notation": "O=C(O)c1ccccn1",
    "IC50 / µg/mL": 55.3
  },
  {
    "Smiles notation": "O=C(O)c1cccnc1",
    "IC50 / µg/mL": 539
  },
  {
    "Smiles notation": "O=C(O)c1cccc(C(=O)O)n1",
    "IC50 / µg/mL": 185
  }
]

Alright, here's another molecule for you.
What value of measured IC50 is listed for `CCCCc1ccc(C(=O)O)nc1` ?
5.6
